- study.target: T1, human GIP receptor (human, UniProt P48546 22-466)
- T1 sequence (looked up): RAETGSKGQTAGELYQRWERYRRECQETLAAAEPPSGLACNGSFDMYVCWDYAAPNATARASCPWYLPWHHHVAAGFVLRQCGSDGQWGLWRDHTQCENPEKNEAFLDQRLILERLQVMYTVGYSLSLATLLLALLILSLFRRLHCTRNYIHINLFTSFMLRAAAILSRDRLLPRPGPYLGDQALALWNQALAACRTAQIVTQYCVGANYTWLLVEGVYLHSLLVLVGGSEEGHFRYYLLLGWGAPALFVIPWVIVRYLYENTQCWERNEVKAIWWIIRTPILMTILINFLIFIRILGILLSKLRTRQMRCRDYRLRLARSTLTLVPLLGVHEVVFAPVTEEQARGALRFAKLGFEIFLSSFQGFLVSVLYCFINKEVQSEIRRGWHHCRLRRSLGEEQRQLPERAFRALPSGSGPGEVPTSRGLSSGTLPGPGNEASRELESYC
- procedure.details: cell-based or functional assay
Starred links: 1 amine or outer side, 2 acyl side, 3 side chain; linkers in the order of their positions; H or OH if unused. Non-standard residues stand in square brackets, D forms with d. Groups on a side chain read outwards from the residue. *: point of attachment. C20 diacid = O=C(O)CCCCCCCCCCCCCCCCCCC(=O)*; γGlu = O=C(O)[C@H](CCC(=O)[*:2])N[*:1]; Aib = CC(C)(N)C(=O)O
Provide the recorded EC50 hGIP R (cAMP, HEK293 cells expressing the GIP R) for the entries that follow.
Kindly provide the numeric value in nM only, without the unit symbol.

Prompt: Fill in the blank: the reported EC50 hGIP R (cAMP, HEK293 cells expressing the GIP R) of H-Y[Aib]EGTFISDYSIELDKIAAQDFIEWLLAGPSSGAPPPSK([Peg3-Peg3-γGlu-C20 diacid])-NH2 [Compound 25] is ____.
Completion: 0.008

Prompt: // EC50 hGIP R (cAMP, HEK293 cells expressing the GIP R) lookup, key: H-Y[Aib]EGTFISDYSIELDKIAQKEFIEWLLAGPSSGAPPPSK([Peg3-Peg3-γGlu-C20 diacid])-NH2 [Compound 24]
Completion: 0.01

Prompt: Please look up its EC50 hGIP R (cAMP, HEK293 cells expressing the GIP R): YAEGTFISDYSIELDKKAAQAFIEWLLAQGPSSGAPPPS (Aib at 2; Lys 17 side chain acylated: K((19-Carboxy-nonadecanoyl)-[(Piperazine-1-yl)-acetyl]-Peg3-Peg3); C-terminal amide (-NH2)) [Compound 41]
Completion: 0.01
